- target desc: human TRPV1 (Homo sapiens, UniProt Q8NER1)
- Construct: DYK (FLAG) tag from vector pcDNA3.1+/C-(K)DYK (C); host or cells: FreeStyle 293-F cells (HEK 293), transient transfection
- Sequence (Q8NER1 whole entry): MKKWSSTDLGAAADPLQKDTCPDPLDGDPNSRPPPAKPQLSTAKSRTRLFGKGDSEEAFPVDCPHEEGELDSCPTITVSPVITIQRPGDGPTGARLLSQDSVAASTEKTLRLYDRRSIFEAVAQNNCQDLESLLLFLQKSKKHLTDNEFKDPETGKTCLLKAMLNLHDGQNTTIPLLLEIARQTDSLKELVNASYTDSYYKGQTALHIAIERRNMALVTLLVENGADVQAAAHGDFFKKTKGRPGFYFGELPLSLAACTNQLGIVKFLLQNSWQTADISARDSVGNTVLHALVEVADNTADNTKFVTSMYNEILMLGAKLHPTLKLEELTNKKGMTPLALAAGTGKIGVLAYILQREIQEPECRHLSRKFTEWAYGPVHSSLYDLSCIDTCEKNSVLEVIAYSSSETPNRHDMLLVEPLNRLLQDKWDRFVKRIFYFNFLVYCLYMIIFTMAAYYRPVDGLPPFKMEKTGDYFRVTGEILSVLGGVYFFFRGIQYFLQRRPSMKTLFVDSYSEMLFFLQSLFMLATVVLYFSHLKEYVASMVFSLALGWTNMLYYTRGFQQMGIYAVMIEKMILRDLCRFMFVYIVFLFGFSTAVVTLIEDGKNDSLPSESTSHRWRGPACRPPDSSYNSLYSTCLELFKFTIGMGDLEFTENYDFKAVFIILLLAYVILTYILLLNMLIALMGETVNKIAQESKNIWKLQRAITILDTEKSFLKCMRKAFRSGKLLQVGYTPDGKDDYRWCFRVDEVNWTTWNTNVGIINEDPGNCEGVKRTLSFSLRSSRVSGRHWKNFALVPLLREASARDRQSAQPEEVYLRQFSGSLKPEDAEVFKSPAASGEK
- protocol details: In vitro Ca2+ flux assay in human TRPV1 transfected HEK 293 cells
- Assay type: cell-based
- protocol conditions: Means±SEM from three independent experiments; read-out: TRPV1 EC50
measure name: EC50

Record COc1cc(CNC(=O)CCCC/C=C/C(C)C)ccc1N [YB-2] , field EC50: < 100 nM

EC50 for COc1cc(CC(=O)N/C=C/c2ccc(C(F)(F)F)cc2)ccc1NC(C)=O [YB-30] is 8800 nM

COc1cc(CC(=O)N/C=C/c2ccc(Cl)cc2)ccc1N [YB-18] yielded EC50 of 340 to 1100 nM

Documented EC50 of COCCOCCOCCC(=O)Oc1ccc(CC(=O)N/C=C/c2ccc(C(F)(F)F)cc2)cc1OC [YB-16] : 930 nM

The compound COc1cc(CC(=O)N/C=C/c2ccc(C(F)(F)F)cc2)ccc1N [YB-17] showed EC50 equal to 340 to 1100 nM

// EC50 lookup, compound = COc1cc(CC(=O)N/C=C/c2ccc(C(F)(F)F)cc2)ccc1NC(=O)CCCC/C=C/C(C)C [YB-29] , result: > 10000 nM

EC50 in this record for COc1cc(CC(=O)N/C=C/c2cccc(C(F)(F)F)c2)ccc1N [YB-21] : 340 to 1100 nM

----------
- target desc: human TRPV3 (Homo sapiens)
- Construct: expressed in transfected cells; host or cells: overexpressing cells
- protocol details: In vitro Ca2+ flux counter-screen in human TRPV3 overexpressing cells
- Assay type: cell-based
- protocol conditions: counter-screen; read-out: TRPV3 EC50
Please respond with reported EC50 for every item in the list.

Summary line: COc1cc(CNC(=O)CCCC/C=C/C(C)C)ccc1N(S(C)(=O)=O)S(C)(=O)=O , human TRPV3 (Homo sapiens), reported EC50 = > 10 µM

Recorded EC50 for COc1cc(CC(=O)N/C=C/c2ccc(C(F)(F)F)cc2)ccc1O on human TRPV3 (Homo sapiens) was > 10 µM

EC50 of COc1cc(CC2=NCC(c3ccccc3)O2)ccc1O (stereo not drawn) , assay on human TRPV3 (Homo sapiens), is > 10 µM

----------
- target desc: human TRPV1 (Homo sapiens)
- Construct: DYK (FLAG) tag from vector pcDNA3.1+/C-(K)DYK (C); host or cells: FreeStyle 293-F cells (HEK 293), transient transfection
- protocol details: In vitro Ca2+ flux assay in human TRPV1 transfected HEK 293 cells
- Assay type: cell-based
- protocol conditions: Table 3 comparison; YB-2 tested as a HCl salt; read-out: TRPV1 EC50
measure name: EC50 (µM)
Give just the numeric value; µM need not be written.

Measured EC50 for this entry COc1cc(CNC(=O)CCCC/C=C/C(C)C)ccc1N on human TRPV1 (Homo sapiens): 0.082

----------
- protocol details: Aqueous solubility
- Type: physicochemical
- Procedure: Chemical analysis and solubility tests were performed blind to the identity of the samples. Intermediates and final analogs were analyzed by NMR (JEOL 400 MHz NMR) and HPLC/MS (Waters Acquity UPLC with SQD Mass Spec) to confirm structures and purity. Final compounds were purified to achieve >95% purity based on HPLC analysis.
measure name: solubility
Lab note: write values as number then unit, every time.

Kindly note the recorded solubility for COc1cc(CNC(=O)CCCC/C=C/C(C)C)ccc1O [Capsaicin, trans-8-methyl-N-vanillyl-6-nonenamide, reference compound] , which is 13 µg/mL

----------
- protocol details: Mouse liver microsome stability
- Format: in vitro ADME
- protocol conditions: liver microsomes, C57BL6 mouse liver microsome
measure name: CLint scaled at 2 μM (mL/min/kg)
Numbers only here, please. The scale is mL/min/kg.

Data point: COc1cc(CNC(=O)CCCC/C=C/C(C)C)ccc1N ; CLint scaled at 2 μM = 1780

----------
- System: OVCAR-8
- protocol details: Human cancer cell growth inhibition assay (ATP assay), OVCAR-8
- Format: cell-based
- protocol conditions: Homo sapiens, OVCAR-8, 96 h; 4 days; Means±SEM from three independent experiments; read-out: OVCAR-8, IC50
Assignment: determine reported IC50 for the given compounds.
Quick reminder: number only, in µM, skip the unit.

Measured IC50 of COc1cc(CC(=O)N/C=C/c2ccc(C(F)(F)F)cc2)ccc1O : 65

The compound COc1cc(CNC(=O)CCCC/C=C/C(C)C)ccc1O [Capsaicin, trans-8-methyl-N-vanillyl-6-nonenamide, reference compound] showed IC50 equal to 234

The compound identified as COc1cc(CC(=O)N/C=C/c2ccc(Cl)cc2)ccc1N registered its IC50 at 200

Quick note, IC50 for COc1cc(CC2=NCC(c3ccc(-c4ccccc4)cc3)O2)ccc1O (stereo not shown) landed at 150

----------
- target desc: human TRPV1 (Homo sapiens, UniProt Q8NER1)
- Construct: DYK (FLAG) tag from vector pcDNA3.1+/C-(K)DYK (C); host or cells: FreeStyle 293-F cells (HEK 293), transient transfection
- protocol details: In vitro Ca2+ flux assay in human TRPV1 transfected HEK 293 cells
- Format: cell-based
- protocol conditions: TRPV1 EC50 (μM), Means±SEM from three independent experiments
measure name: EC50 (µM)
Your answer should be a plain number; it is taken to be in µM.

According to the records, this molecule CNCC1CCCCN1C(=O)Oc1ccc(CC(=O)N/C=C/c2ccc(C(F)(F)F)cc2)cc1OC (centres unmarked) displays EC50 of 0.71

----------
- target desc: human TRPV3 (Homo sapiens, UniProt Q8NET8)
- Construct: expressed in transfected cells; host or cells: overexpressing cells
- Sequence (Q8NET8 whole entry): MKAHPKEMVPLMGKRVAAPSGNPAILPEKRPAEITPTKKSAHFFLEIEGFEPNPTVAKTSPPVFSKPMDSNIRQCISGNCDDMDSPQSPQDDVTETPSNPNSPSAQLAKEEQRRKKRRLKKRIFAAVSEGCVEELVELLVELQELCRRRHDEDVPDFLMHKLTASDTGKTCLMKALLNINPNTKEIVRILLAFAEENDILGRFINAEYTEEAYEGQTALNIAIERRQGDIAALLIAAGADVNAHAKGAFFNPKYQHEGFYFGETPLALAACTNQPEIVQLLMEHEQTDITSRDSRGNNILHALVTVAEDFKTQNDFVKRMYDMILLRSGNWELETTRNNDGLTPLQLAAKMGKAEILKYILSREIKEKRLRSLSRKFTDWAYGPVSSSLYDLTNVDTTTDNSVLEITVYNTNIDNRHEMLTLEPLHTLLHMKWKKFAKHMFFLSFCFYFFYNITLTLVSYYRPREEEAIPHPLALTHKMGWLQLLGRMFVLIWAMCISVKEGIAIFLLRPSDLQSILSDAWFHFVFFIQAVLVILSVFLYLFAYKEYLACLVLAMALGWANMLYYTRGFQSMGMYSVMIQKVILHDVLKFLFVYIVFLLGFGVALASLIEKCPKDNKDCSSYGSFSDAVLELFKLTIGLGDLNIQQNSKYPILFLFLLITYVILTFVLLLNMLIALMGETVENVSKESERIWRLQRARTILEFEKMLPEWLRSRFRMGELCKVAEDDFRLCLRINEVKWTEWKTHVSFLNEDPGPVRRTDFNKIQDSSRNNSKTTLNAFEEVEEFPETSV
- protocol details: In vitro Ca2+ flux counter-screen in human TRPV3 overexpressing cells
- Assay type: cell-based
- protocol conditions: counter-screen; read-out: TRPV3 EC50
measure name: EC50

The recorded EC50 with human TRPV3 (Homo sapiens, UniProt Q8NET8) for COc1cc(CC(=O)N/C=C/c2ccc(C#N)cc2)ccc1O was > 10 µM

# lookup: COCCOCCOCCC(=O)Nc1ccc(CNC(=O)CCCC/C=C/C(C)C)cc1OC on human TRPV3 (Homo sapiens, UniProt Q8NET8), EC50 = > 10 µM

Measured on human TRPV3 (Homo sapiens, UniProt Q8NET8), COc1cc(CC(=O)N/C=C/c2ccc(C(F)(F)F)cc2)ccc1NC(=O)CCCC/C=C/C(C)C has a documented EC50 of > 10 µM

The observed EC50 for COc1ccc(/C=C/NC(=O)Cc2ccc(O)c(OC)c2)cc1 when tested with human TRPV3 (Homo sapiens, UniProt Q8NET8) stands at > 10 µM

Value sought: EC50, system human TRPV3 (Homo sapiens, UniProt Q8NET8), item COc1cc(CC(=O)N/C=C/c2cc(C(F)(F)F)cc(C(F)(F)F)c2)ccc1O . Result: > 10 µM

Item COc1ccc(/C=C/NC(=O)Cc2ccc(N)c(OC)c2)cc1 was tested on human TRPV3 (Homo sapiens, UniProt Q8NET8); the reported EC50 is > 10 µM

Measured on human TRPV3 (Homo sapiens, UniProt Q8NET8), COc1cc(CC(=O)N/C=C/c2ccc(C(F)(F)F)cc2)ccc1N has a documented EC50 of > 10 µM

Param item: COc1cc(CNC(=O)CCCC/C=C/C(C)C)ccc1N ; param system: human TRPV3 (Homo sapiens, UniProt Q8NET8); output EC50: > 10 µM

// compound COc1cc(CC(=O)N/C=C/c2ccc(C(F)(F)F)cc2)ccc1NC(C)=O , assay human TRPV3 (Homo sapiens, UniProt Q8NET8), EC50 value: > 10 µM

----------
- Tested on: OVCAR-8
- protocol details: Human cancer cell growth inhibition assay (ATP assay), OVCAR-8
- Format: cell-based
- protocol conditions: Homo sapiens, OVCAR-8, 96 h, read-out: OVCAR-8, IC50, μM
measure name: IC50 (µM)
The reply should contain only the number, in µM.

What the record says about COc1cc(CC(=O)N/C=C/c2ccc(C(F)(F)F)cc2)ccc1N : IC50 is 161

----------
Hi there, I'd appreciate the recorded IC50 for every entry that follows.
- System: OVCAR-8
- protocol details: Human cancer cell growth inhibition assay (ATP assay), OVCAR-8
- Format: cell-based
- protocol conditions: Homo sapiens, OVCAR-8, 96 h; 4 days; Means±SEM from three independent experiments; read-out: OVCAR-8, IC50
Record the value in µM, omitting the unit from your answer.

Tested on OVCAR-8, the item COc1cc(CNC(=O)CCCC/C=C/C(C)C)ccc1N [YB-2] showed IC50 equal to 200

// compound COc1cc(CC(=O)N/C=C/c2ccc(-c3ccccc3)cc2)ccc1N [YB-19] , assay OVCAR-8, IC50 value: 100

Field IC50 (system: OVCAR-8) for entry COc1cc(CC2=NCC(c3ccc(C(F)(F)F)cc3)O2)ccc1O (stereo not shown) [YB-4] = 300

Here COc1cc(CC(=O)N/C=C/c2cc(C(F)(F)F)cc(C(F)(F)F)c2)ccc1O [YB-22] was tested on OVCAR-8, and its IC50 came to 58

Item COc1cc(CC(=O)N/C=C/c2ccc(Cl)cc2)ccc1O [YB-10] was tested on OVCAR-8; the reported IC50 is 34

Summary line: COc1ccc(/C=C/NC(=O)Cc2ccc(O)c(OC)c2)cc1 [YB-14] , OVCAR-8, reported IC50 = 500

Hey, OVCAR-8 data for COCCOCCOCCC(=O)Oc1ccc(CC(=O)N/C=C/c2ccc(C(F)(F)F)cc2)cc1OC [YB-16] : IC50 came out at 16

IC50 for OVCAR-8 with input COc1cc(CNC(=O)CCCC/C=C/C(C)C)ccc1N(S(C)(=O)=O)S(C)(=O)=O [YB-7] equals 310

Value (IC50, OVCAR-8) for record COc1cc(CNC(=O)CCCC/C=C/C(C)C)ccc1NC(=O)CCCC/C=C/C(C)C [YB-1] = 38

Per the reported OVCAR-8 data, COCCOCCOCCC(=O)Nc1ccc(CNC(=O)CCCC/C=C/C(C)C)cc1OC [YB-13] has IC50 of 200

IC50 of COc1cc(CNC(=O)CCCC/C=C/C(C)C)ccc1NC(C)=O [YB-9] , assay on OVCAR-8, is 34

Bench note, OVCAR-8: entry CNc1ccc(CNC(=O)CCCC/C=C/C(C)C)cc1OC [YB-8] , its IC50 = 500

Short answer on OVCAR-8 for COc1cc(CC2=NCC(c3ccccc3)O2)ccc1O (stereo not shown) [YB-3] , IC50: 500

The observed IC50 for COc1ccc(/C=C/NC(=O)Cc2ccc(N)c(OC)c2)cc1 [YB-20] when tested with OVCAR-8 stands at 283

Lab entry: OVCAR-8 assay, compound COc1cc(CC(=O)N/C=C/c2cccc(C(F)(F)F)c2)ccc1N [YB-21] , IC50 = 65

Given the compound COc1cc(CNC(=O)CCCC/C=C/C(C)C)ccc1NS(C)(=O)=O [YB-6] and test system OVCAR-8, the measured IC50 is 400

Tested on OVCAR-8, the item COc1cc(CC(=O)N/C=C/c2ccc(-c3ccccc3)cc2)ccc1O [YB-12] showed IC50 equal to 129

Known value: OVCAR-8 IC50 of the compound COc1cc(CC(=O)N/C=C/c2ccc(C#N)cc2)ccc1O [YB-23] equals 73

Measured on OVCAR-8, COc1cc(CC(=O)N/C=C/c2cccc(C(F)(F)F)c2)ccc1O [YB-15] has a documented IC50 of 101
